- Tested on: releasing of lysosome from the neutrocytes of rat
- assay-remarks: Inhibitory effect against the releasing of lysosome from the neutrocytes of rat
- Type: cell-based
- condition-summary: 0.25 h; rat neutrocytes 5×10^5 cells/ml; FMLP 10^-6 M + cytochalasin B 5 μg/ml; 15 minutes; OD550; read-out: 50% inhibitory concentration (IC50), releasing of lysosome
measured-quantity: IC50 (µg/mL)
One number for each entry, in µg/mL.

| compound | value-units | IC50 |
| --- | --- | --- |
| O=C1CN(O)C(=O)[C@H](Cc2c[nH]c3ccccc23)N1 [Compound A-29c] | µg/mL | 50 |
| COc1nc(CC(C)C)c(OC)nc1Cc1c[nH]c2ccccc12 [Compound A-19] | µg/mL | 25 |
| COc1c(CC2C(=O)Nc3ccccc32)[nH]c(=O)c(CC(C)C)[n+]1[O-] (stereo not drawn) [Compound E-39] | µg/mL | 50 |
| COC1=N[C@@H](CC(C)C)C(=O)N(C)/C1=C\c1c[nH]c2ccccc12 [Compound A-5b] | µg/mL | 25 |
| COn1c(CC(C)C)c(Cl)nc(Cc2c[nH]c3ccccc23)c1=O [Compound A-45] | µg/mL | 20 |
| COc1c(Cn2ccc3cc(C#N)ccc32)[nH]c(=O)c(CC(C)C)[n+]1[O-] [Compound E-36o] | µg/mL | 12 |
| COc1c(Cc2c[nH]c3ccccc23)n(C)c(=O)c(CC(C)C)[n+]1[O-] [Compound A-59] | µg/mL | 20 |
| COc1nc(Cc2c[nH]c3ccccc23)c(OC)[n+]([O-])c1CC(C)C [Compound A-60] | µg/mL | 20 |

Qu. Return reported IC50; argument: COc1nc(CC(C)C)c(=O)n(C)c1Cc1c[nH]c2ccccc12 [Compound A-6b]
Ans. 30

---

- Tested on: releasing of lysosome from the neutrocytes of rat
- assay-remarks: Inhibitory effect against the releasing of lysosome from the neutrocytes of rat
- Assay type: cell-based
- condition-summary: 0.25 h; rat neutrocytes 5×10^5 cells/ml; FMLP 10^-6 M + cytochalasin B 5 μg/ml; 15 minutes; OD550; read-out: 50% inhibitory concentration (IC50), releasing of lysosome
measured-quantity: IC50 (µg/mL)
Numbers only, in µg/mL.

Worked cases, answers included:
| smiles-record | target-entity | observed-result |
| --- | --- | --- |
| COc1nc(CC(C)C)c(OC(C)=O)nc1Cc1c[nH]c2ccccc12 | releasing of lysosome from the neutrocytes of rat | 20 |
| CC(C)Cc1c(=O)[nH]c(Cc2c[nH]c3ccccc23)c[n+]1[O-] | releasing of lysosome from the neutrocytes of rat | 50 |
| CC(C)Cc1nc(Cl)c(Cc2c[nH]c3ccccc23)nc1Cl | releasing of lysosome from the neutrocytes of rat | 10 |

Look up IC50 for the entries below, preserving their order.
1. CC(C)/C=c1\[nH]c(=O)/c(=C/c2c[nH]c3ccccc23)[nH]c1=O
2. COc1c(Cc2c[nH]c3ccccc23)nc(OC(C)=O)c(CC(C)C)[n+]1[O-]
3. COn1c(C)c(C)nc(Cc2c[nH]c3ccccc23)c1=O

Ans.
[50, 9, 43]
